B1: COX4I1 (parent)
chain: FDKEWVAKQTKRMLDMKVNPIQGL

- Variants of: B1
- PROCEDURE_SUMMARY: protein stability index of a GFP-peptide fusion (GPS, HEK-293T) (PSI 1-6); higher = more stable;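 note: lentivirally expressed fusions sorted by FACS into six bins by GFP to DsRed ratio, PSI derived from sequencing read proportions per bin multiplied by bin number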
- STATED_CONDITIONS: c terminus: a fixed tail appended
MEASUREMENT_TYPE: protein stability index
Please give the numeric answer without any surrounding text.

Record excerpt, results attached:
                     sequence_data         measurement_type  measured_value
0   FDKRWVAKQTKRMLDMKVNPIQGL [E4R]  protein stability index            1.84
1  FDKEWVAKQTKRMLDMKVNNIQGL [P20N]  protein stability index            1.47

Supply measured protein stability index of FDKEWVAKQLKRMLDMKVNPIQGL [T10L] in your reply.
1.24

Supply measured protein stability index of FDKEWVAKQTKRMLDLKVNPIQGL [M16L] in your reply.
2

Supply measured protein stability index of FPKEWVAKQTKRMLDMKVNPIQGL [D2P] in your reply.
2.51

Supply measured protein stability index of FDKEWVAKQTKRMLDMHVNPIQGL [K17H] in your reply.
1.44

Supply measured protein stability index of FDKEWVAKGTKRMLDMKVNPIQGL [Q9G] in your reply.
2.65

Supply measured protein stability index of FDKFWVAKQTKRMLDMKVNPIQGL [E4F] in your reply.
1.63

Supply measured protein stability index of FDKEWVAKQTKRMLDMKVNPVQGL [I21V] in your reply.
1.89

Supply measured protein stability index of FDKEWVAKQTKRMLDMKVNPIQGH [L24H] in your reply.
2.55

Supply measured protein stability index of FVKEWVAKQTKRMLDMKVNPIQGL [D2V] in your reply.
1.26

Supply measured protein stability index of GDKEWVAKQTKRMLDMKVNPIQGL [F1G] in your reply.
2.92

Supply measured protein stability index of FDKEWVAKQTKGMLDMKVNPIQGL [R12G] in your reply.
1.35
